Kindly supply the reported %Inh values for the records listed here.
# System: CAMK1G
# runConditions: concentration: 1 μM, replicates: in singlicate; n = 1;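 also: KINOMEscan kinase panel screen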
Please reply with the bare figure in % and do not write the unit itself.

Enquiry: Item under review: "CCC(CC)(CC)n1cnc2c(N)ncnc21" . Reported %Inh?
Return: 6

Enquiry: Request the reported %Inh associated with "CC(C)(C)c1ccc(-n2cnc3c(N)ncnc32)cc1"
Return: 0

Enquiry: Look at this compound and give its reported %Inh. O=C(Nc1ccccc1F)NC1CCN(c2ccnc(Nc3ccc(F)cc3)n2)C1 (stereo not shown)
Return: 0

Enquiry: Would you kindly share the measured %Inh for "Nc1n[nH]c2nnc(-c3ccccc3)cc12" ?
Return: 0

Enquiry: I would be grateful if you could share the reported %Inh for "Nc1nc(-c2ccc3c(N)n[nH]c3c2)cc(N2CCC[C@@H](C(=O)Nc3ccccc3)C2)n1.O=C(O)C(F)(F)F.O=C(O)C(F)(F)F" .
Return: 0

Enquiry: Item under review: "O=C(Nc1n[nH]c2nc(-c3ccco3)c(Br)cc12)c1ccc(CN2CCCC2)cc1.O=C(O)[C@H](O)[C@@H](O)C(=O)O" . Reported %Inh?
Return: 0

Enquiry: %Inh for "CN1CCC(n2cnc(-c3ccc(F)cc3)c2-c2ccnc(NC3CCNCC3)n2)CC1" ?
Return: 2

Enquiry: What value of %Inh has been recorded for this entry: "Clc1cc(Nc2ncnc3cc[nH]c23)ccc1OCc1ccccn1"
Return: 27

Enquiry: Please report the recorded %Inh for "O=c1cc(N2CCOCC2)nc2n(Cc3cccc(Cl)c3)ccn12" .
Return: 0

Enquiry: Name the recorded %Inh for "Fc1cccc(COc2ccc(Nc3ncnc4cc[nH]c34)cc2Cl)c1" .
Return: 10

Enquiry: Request the reported %Inh associated with "Cl.c1ccc(Cn2ncc3cc(Nc4ncnc5ccccc45)ccc32)cc1"
Return: 23

Enquiry: What %Inh value was documented for this compound, "Cn1ccc2ncnc(Oc3ccc(NC(=O)Nc4cccnc4)c(Cl)c3)c21" ?
Return: 27

Enquiry: So what's the measured %Inh for this one? "Fc1ccc(-c2ncn(CCCNCc3ccccc3)c2-c2ccncc2)cc1"
Return: 0

Enquiry: What does the record list as %Inh for "COc1cc2ncnc(Nc3ccc(OCc4ccccc4Br)c(Cl)c3)c2cc1OC.Cl" ?
Return: 0

Enquiry: Look at this compound and give its reported %Inh. "Nc1nc(-c2cccnc2)c(-c2ccnc3ccccc23)s1"
Return: 0

Enquiry: Look up %Inh for this compound: "O=C(c1ccc(-c2cc(-c3c[nH]nc3-c3ccccn3)ccn2)cc1)N1CCCC1"
Return: 0

Enquiry: Name the reported %Inh value associated with the compound "COC(=O)c1cccc(NC(=O)NCCNc2ccnc(Nc3ccc(F)cc3)n2)c1"
Return: 0

Enquiry: What value of measured %Inh is listed for "NC(=O)c1sc(-n2cnc3ccccc32)cc1OCc1ccccc1F" ?
Return: 0

Enquiry: Give the measured %Inh of "Nc1nc(-c2ccccn2)c(-c2ccnc3ccccc23)s1" .
Return: 0

---

# System: CSNK1A1
# runConditions: concentration: 1 μM, replicates: in singlicate; n = 1
valueKind: %Inh (%)
Please respond with the number in % and leave the unit unwritten.

Enquiry: Need %Inh, item "Cc1ccc(O)cc1Nc1cc(C(F)(F)F)nc2ccc(-c3ccncc3)cc12"
Return: 4

Enquiry: Can you look up the measured %Inh of "CS(=O)(=O)CCNCc1ccc(-c2ccc3ncnc(Nc4ccc(OCc5ccccc5)c(Cl)c4)c3c2)o1.Cl" for me?
Return: 0

Enquiry: Param item = "O=C(NCCCN1CCCC1=O)c1cnc(NCc2cc(Cl)ccc2Cl)nc1NC1CCNCC1" ; retrieve measured %Inh.
Return: 36

Enquiry: Can you share its %Inh? I mean this molecule: "Fc1cccc(COc2ccc(Nc3ncnc4cc[nH]c34)cc2Cl)c1"
Return: 2

Enquiry: So what does the record say about %Inh for "Clc1ccc(-c2cc(-c3c[nH]nc3-c3ccccn3)ccn2)cc1" ?
Return: 18

Enquiry: Which %Inh value is on record for "Cl.Cl.c1ccc(-c2cc3ccncc3cc2OC2CCNCC2)cc1" ?
Return: 16

Enquiry: For "Cn1ccc2ncnc(Oc3ccc(NC(=O)Nc4cccnc4)c(Cl)c3)c21" , what is its reported %Inh?
Return: 8

Enquiry: Fill in: %Inh of "Nc1nc(-c2ccc3c(N)n[nH]c3c2)cc(N2CCCCC2)n1" is ___
Return: 0

Enquiry: Value lookup for %Inh; key = "CN1c2ccc(-c3ccc(C(=O)NCCO)cc3)cc2-c2[nH]ncc2S1(=O)=O"
Return: 4
